Values from paper PMC10397247

# Target Or Test System: T1, O13-AA
# T1 chain: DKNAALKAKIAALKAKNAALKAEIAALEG
# Assay Method Text: two-hybrid library CCmax;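 note: natural log of median RNA to DNA barcode read ratio; higher means stronger binding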
# Details: mean of both orientations
Value Kind: interaction score
Answer with a bare number; do not write a unit.

Sample records with interaction score:
Binder | Experimental Result
DENAALEAKIAALKAKIAALKAKNAALKG [4H1392-AA] | -1.99
DENAALEAKIAALKAKIAALKAEIAALEG [4H1385-AA] | -1.62
DKIAALKAKNAALKAKIAALKAEIAALEG [4H3049-AA] | -1.55
DEIAALEAENAALEAKIAALKAENAALEG [4H171-AA] | 2.21
DKIAALKAEIAALEAENAALEAENAALEG [O11-AA] | -1.08

Data request: For DEIAALEAEIAALEAKIAALKAENAALEG [4H43-AA] , what is its reported interaction score?
Data returned: 0.246

Data request: For DKNAALKAEIAALEAEIAALEAKIAALKG [4H3590-AA] , what is its reported interaction score?
Data returned: 1.33
